List of IC50 values.
Study Target: FABP4 (Homo sapiens, UniProt P15090)
Construct: purchased Cayman Chemical 10010231
Sequence (P15090 whole entry): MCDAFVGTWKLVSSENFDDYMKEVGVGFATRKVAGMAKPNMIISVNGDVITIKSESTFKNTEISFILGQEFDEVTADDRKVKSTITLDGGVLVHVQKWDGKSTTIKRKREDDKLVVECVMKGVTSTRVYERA
Protocol Summary: FABP4 Inhibitor/Ligand Screening Assay Kit: displacement of a fluorescent detection reagent
Type: binding
Condition Description: displacement of detection reagent from FABP4; compounds diluted in PBS pH 7.4; fluorescence em 470 nm, ex 370 nm

// below: answered compounds
CSc1nnc(-c2ccccc2)cc1N | > 50 µM
Cc1cc(N)c(=O)n(-c2ccccc2)n1 | > 50 µM

Task: Give IC50 (FABP4 (Homo sapiens, UniProt P15090)) of the following compound: CCn1nc(-c2ccccc2)cc(NC(N)=O)c1=O [Compound 25c]
Result: > 50 µM

Task: Could you do the same for Cn1nc(-c2ccccc2)cc(NC(N)=O)c1=O [Compound 25a] , please?
Result: 2.97 µM

Task: Could you do the same for CCCn1nc(-c2ccccc2)cc(NC(N)=O)c1=O [Compound 25e] , please?
Result: > 50 µM

Task: Could you do the same for Cn1nc(-c2ccccc2)cc(Nc2ccccc2C#N)c1=O [Compound 30b] , please?
Result: 23.2 µM

###

Outcome Measure: melting point

Cn1nc(-c2ccccn2)cc(NC(N)=O)c1=O | > 300 °C
Cn1nc(-c2ccccc2)cc(C(N)=O)c1=O | 215 to 217 °C

Task: Fill blank: measured melting point of the compound `NC(=O)c1c(-c2ccccc2)n[nH]c(=O)c1N` is ____.
Result: > 300 °C

Task: Could you do the same for Cn1nc(-c2ccccc2)cc(Nc2cccc(C(N)=O)c2)c1=O [Compound 31a] , please?
Result: 214 to 216 °C

Task: Could you do the same for Cn1nc(Cc2ccccc2)cc(N)c1=O [Compound 38d] , please?
Result: 104 to 108 °C

###

List of melting point values.

Task: Fill blank: measured melting point of the molecule CC(=O)Nc1ccc(-c2cc(N)c(=O)n(C)n2)cc1 [Compound 44] is ____.
Result: 270 to 272 °C

Task: Could you do the same for NC(=O)Nc1cc(-c2ccccc2)n[nH]c1=O [Compound 28] , please?
Result: > 300 °C

Task: Could you do the same for Nc1c(C(=O)Nc2ccccc2)c(-c2ccccc2)n[nH]c1=O [Compound 4a] , please?
Result: 228 to 229 °C

Task: Could you do the same for NC(=O)Nc1cc(-c2ccccc2)nn(C2CCCCC2)c1=O [Compound 25b] , please?
Result: 261 to 263 °C

Task: Could you do the same for CC(=O)c1cnn(-c2ccccc2)c(=O)c1N [Compound 18] , please?
Result: 181 to 183 °C

Task: Could you do the same for Cn1nc(C2CCCCC2)cc(NC(N)=O)c1=O [Compound 39a] , please?
Result: 251 to 254 °C

Task: Could you do the same for CCCn1nc(-c2ccccc2)cc(N)c1=O [Compound 24e] , please?
Result: 79 to 81 °C

Task: Could you do the same for CCCn1nc(-c2ccccc2)cc(NC(N)=O)c1=O [Compound 25e] , please?
Result: 273 to 275 °C

Task: Could you do the same for Cn1nc(-c2ccccc2)cc(N)c1=S [Compound 32] , please?
Result: 134 to 135 °C

Task: Could you do the same for Cn1nc(-c2ccccc2)cc(Nc2ccccc2C(N)=O)c1=O [Compound 31b] , please?
Result: 140 to 142 °C

Task: Could you do the same for Nc1cc(-c2ccccc2)nn(C2CCCCC2)c1=O [Compound 24b] , please?
Result: 120 to 124 °C

Task: Could you do the same for NC(=O)Nc1cc(-c2ccccc2O)n[nH]c1=O [Compound 40] , please?
Result: > 300 °C

Task: Could you do the same for Nc1cc(Cc2ccccc2)n[nH]c1=O [Compound 37d, 4-Amino-6-benzylpyridazin-3(2H)-one] , please?
Result: 247 to 250 °C

Task: Could you do the same for Cn1nc(-c2ccccn2)cc(N)c1=O [Compound 48] , please?
Result: 294 to 295 °C

Task: Could you do the same for CC(=O)Nc1cc(-c2ccccc2)nn(C)c1=O [Compound 29a] , please?
Result: 211 to 212 °C

Task: Could you do the same for N#Cc1c(-c2ccccc2)nn(C2CCCCC2)c(=O)c1N [Compound 22] , please?
Result: 170 to 172 °C

Task: Could you do the same for N#Cc1c(-c2ccccc2)n[nH]c(=O)c1N [Compound 7] , please?
Result: 287 to 289 °C

Task: Could you do the same for CC(C)c1cc(N)c(=O)[nH]n1 [Compound 37c, 4-Amino-6-isopropylpyridazin-3(2H)-one] , please?
Result: 246 to 248 °C

Task: Could you do the same for Cn1nc(-c2ccccc2O)cc(N)c1=O [Compound 42a] , please?
Result: 212 to 213 °C

Task: Could you do the same for CCn1nc(-c2ccccc2)cc(NC(N)=O)c1=O [Compound 25c] , please?
Result: 270 to 271 °C

Task: Could you do the same for CC(C)C(=O)Nc1cc(-c2ccccc2)nn(C)c1=O [Compound 29c] , please?
Result: 146 to 148 °C

Reference for the values: paper PMC9697826
